The reported numbers originate from patent US12281080B2.

Biological target: HASPIN (Homo sapiens (Human))
Sequence (Q8TF76 whole entry): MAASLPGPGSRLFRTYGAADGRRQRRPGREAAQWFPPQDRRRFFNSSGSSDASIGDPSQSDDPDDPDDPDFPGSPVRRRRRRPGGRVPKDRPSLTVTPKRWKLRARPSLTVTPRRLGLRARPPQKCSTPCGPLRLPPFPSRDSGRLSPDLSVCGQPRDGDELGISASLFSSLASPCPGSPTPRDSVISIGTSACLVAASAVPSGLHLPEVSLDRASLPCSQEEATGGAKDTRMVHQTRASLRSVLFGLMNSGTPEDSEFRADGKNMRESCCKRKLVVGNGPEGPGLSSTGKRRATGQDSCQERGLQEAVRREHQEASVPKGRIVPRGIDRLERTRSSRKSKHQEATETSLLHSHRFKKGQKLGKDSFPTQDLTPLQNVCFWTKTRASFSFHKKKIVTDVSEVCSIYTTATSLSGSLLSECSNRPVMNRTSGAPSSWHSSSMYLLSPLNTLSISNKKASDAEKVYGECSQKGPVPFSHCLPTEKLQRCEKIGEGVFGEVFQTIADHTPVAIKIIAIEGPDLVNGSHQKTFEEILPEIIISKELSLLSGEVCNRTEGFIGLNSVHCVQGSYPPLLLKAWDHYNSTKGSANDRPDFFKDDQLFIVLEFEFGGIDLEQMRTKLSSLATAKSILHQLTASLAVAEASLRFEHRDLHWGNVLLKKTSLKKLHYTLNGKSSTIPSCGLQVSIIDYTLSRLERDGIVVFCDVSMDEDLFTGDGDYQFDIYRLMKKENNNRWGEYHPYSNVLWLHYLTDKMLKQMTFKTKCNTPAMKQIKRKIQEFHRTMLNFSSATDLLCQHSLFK
Assay: DiscoverX Kd assay
Conditions: average from duplicate measurements
property name: Kd (µM)
Give bare numbers, in µM.

Task: Answer with the recorded Kd for the molecule listed here: CN1CCN(C(=O)c2ccc3cc(CCNc4ncnc5ccc(C#N)cc45)ccc3c2)CC1 [Senexin B, reference compound]
Output: 1.7

====

Experiment: Mouse pharmacokinetics, intraperitoneal, serum
Type: in vivo, mice
Conditions: mouse, serum, ip; i.p. 19 mg/kg, female FVB mice; read-out: bioavailability (F %)
property name: bioavailability (%)
Answers are plain numbers, in %.

Task: Answer with the recorded bioavailability for the compound listed here: CN1CCN(C(=O)c2ccc3cc(CCNc4ccnc5ccc(C#N)cc45)ccc3c2)CC1 [compound 6148]
Output: 73

====

System: CDK8/19-mediated NFκB-driven transcription
Assay: NFκB-dependent luciferase reporter assay in parental 293 reporter cells
Assay type: cell-based, human
Details: Homo sapiens, 293/NFkB-luc; read-out: IC50 (293-NFKB-Luc)
property name: pIC50
One number for each entry, as −log10 of the molar value.

CC(=O)N1CCN(C(=O)c2ccc3cc(CCNc4ccnc5ccc(C#N)cc45)ccc3c2)CC1
6.75
N#Cc1ccc2nccc(NCCc3ccc4cc(C(=O)N5CCN(CCCN)CC5)ccc4c3)c2c1
6.08

Task: Answer with the recorded pIC50 for the compound listed here: "N#Cc1ccc2nccc(NCCc3ccc4cc(C(=O)N5CC[S+]([O-])CC5)ccc4c3)c2c1"
Output: 6.80

====

Would you mind telling me the reported pIC50 of each entry?
Biological target: CDK8 in complex with Cyclin C (Homo sapiens (Human), UniProt P49336)
Sequence (P49336 whole entry): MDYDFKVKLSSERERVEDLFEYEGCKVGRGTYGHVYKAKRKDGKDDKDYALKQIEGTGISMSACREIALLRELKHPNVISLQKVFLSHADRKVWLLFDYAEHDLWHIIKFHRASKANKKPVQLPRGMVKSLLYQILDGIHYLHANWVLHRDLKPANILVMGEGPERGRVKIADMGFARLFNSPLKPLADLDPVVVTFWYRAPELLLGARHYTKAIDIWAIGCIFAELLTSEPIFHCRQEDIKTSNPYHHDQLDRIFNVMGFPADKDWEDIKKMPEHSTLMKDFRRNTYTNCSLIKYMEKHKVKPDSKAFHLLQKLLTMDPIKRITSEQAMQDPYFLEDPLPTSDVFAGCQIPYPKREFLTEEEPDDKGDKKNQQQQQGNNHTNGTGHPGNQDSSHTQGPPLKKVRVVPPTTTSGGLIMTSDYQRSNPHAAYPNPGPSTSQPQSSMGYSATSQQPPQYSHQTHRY
Sequence (P24863 whole entry partner): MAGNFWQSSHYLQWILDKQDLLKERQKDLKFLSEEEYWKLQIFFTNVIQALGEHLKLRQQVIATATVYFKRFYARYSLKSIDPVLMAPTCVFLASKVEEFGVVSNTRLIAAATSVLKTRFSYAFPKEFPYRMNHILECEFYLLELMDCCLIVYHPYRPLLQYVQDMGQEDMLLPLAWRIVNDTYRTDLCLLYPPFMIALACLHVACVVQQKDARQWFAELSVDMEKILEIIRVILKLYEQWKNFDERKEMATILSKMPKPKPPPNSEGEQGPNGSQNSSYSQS
Experiment: LanthaScreen Eu Kinase Binding Assay
Give bare numbers, as −log10 of the molar value.

N#Cc1ccc2nccc(NCCc3ccc4cc(C(=O)N5CCSCC5)ccc4c3)c2c1 [compound 6294]
8.01
CC(C)(C)OC(=O)N1CCN(C(=O)c2ccc3cc(CCNc4ccnc5ccc(C#N)cc45)ccc3c2)CC1 [compound 6440]
7.72
CC(C)(C)OC(=O)NCCCN1CCN(C(=O)c2ccc3cc(CCNc4ccnc5ccc(C#N)cc45)ccc3c2)CC1 [compound 6345]
8.09

For every record below, what is its pIC50?
1. CN(CCCN)C(=O)c1ccc2cc(CCNc3ccnc4ccc(C#N)cc34)ccc2c1 [compound 6337]
2. CN1CCN(C(=O)c2ccc3cc(CCNc4ccnc5ccc(C#N)cc45)ccc3c2)CC1 [compound 6148]
3. N#Cc1ccc2nccc(NCCc3ccc4cc(C(=O)N5CCN(CCCN)CC5)ccc4c3)c2c1 [compound 6346]

Output:
8.04
8.42
8.19

For every record below, what is its pIC50?
1. N#Cc1ccc2nccc(NCCc3ccc4cc(C(=O)N5CCS(=N)(=O)CC5)ccc4c3)c2c1 [compound 6299]
2. N#Cc1ccc2nccc(NCCc3ccc4cc(C(=O)N5CC[S+]([O-])CC5)ccc4c3)c2c1 [compound 6295]

Output:
1. 8.34
2. 8.24

For every record below, what is its pIC50?
1. CC(=O)N1CCN(C(=O)c2ccc3cc(CCNc4ccnc5ccc(C#N)cc45)ccc3c2)CC1 [compound 6326]
2. CN(CCCNC(=O)OC(C)(C)C)C(=O)c1ccc2cc(CCNc3ccnc4ccc(C#N)cc34)ccc2c1 [compound 6336]

Output:
1. 7.93
2. 8.03

====

Target: UniProt:Q9BWU1
Sequence (Q9BWU1 whole entry): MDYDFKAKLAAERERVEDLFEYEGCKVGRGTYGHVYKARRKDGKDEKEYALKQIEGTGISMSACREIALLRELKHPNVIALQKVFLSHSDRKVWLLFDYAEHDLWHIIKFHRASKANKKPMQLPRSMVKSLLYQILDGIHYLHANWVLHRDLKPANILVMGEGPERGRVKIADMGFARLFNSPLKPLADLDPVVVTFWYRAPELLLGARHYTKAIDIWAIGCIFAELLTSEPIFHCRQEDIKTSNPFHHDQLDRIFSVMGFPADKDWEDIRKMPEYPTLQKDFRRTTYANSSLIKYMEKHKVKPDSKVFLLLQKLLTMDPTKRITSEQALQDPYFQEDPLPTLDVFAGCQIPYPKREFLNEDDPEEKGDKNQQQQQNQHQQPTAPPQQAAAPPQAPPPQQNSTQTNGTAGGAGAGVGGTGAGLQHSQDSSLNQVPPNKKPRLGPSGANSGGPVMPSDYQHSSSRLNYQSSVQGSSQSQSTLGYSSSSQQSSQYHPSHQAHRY
property name: Kd (nM)
Give bare numbers, in nM.

Task: Answer with the recorded Kd for the compound listed here: CN1CCN(C(=O)c2ccc3cc(CCNc4ccnc5ccc(C#N)cc45)ccc3c2)CC1 [compound 6148]
Output: 44
